The values you see were collected from patent US7410963B2.

- targetUnderTest: PDE2 (Bos taurus)
- Sequence (P14099 whole entry): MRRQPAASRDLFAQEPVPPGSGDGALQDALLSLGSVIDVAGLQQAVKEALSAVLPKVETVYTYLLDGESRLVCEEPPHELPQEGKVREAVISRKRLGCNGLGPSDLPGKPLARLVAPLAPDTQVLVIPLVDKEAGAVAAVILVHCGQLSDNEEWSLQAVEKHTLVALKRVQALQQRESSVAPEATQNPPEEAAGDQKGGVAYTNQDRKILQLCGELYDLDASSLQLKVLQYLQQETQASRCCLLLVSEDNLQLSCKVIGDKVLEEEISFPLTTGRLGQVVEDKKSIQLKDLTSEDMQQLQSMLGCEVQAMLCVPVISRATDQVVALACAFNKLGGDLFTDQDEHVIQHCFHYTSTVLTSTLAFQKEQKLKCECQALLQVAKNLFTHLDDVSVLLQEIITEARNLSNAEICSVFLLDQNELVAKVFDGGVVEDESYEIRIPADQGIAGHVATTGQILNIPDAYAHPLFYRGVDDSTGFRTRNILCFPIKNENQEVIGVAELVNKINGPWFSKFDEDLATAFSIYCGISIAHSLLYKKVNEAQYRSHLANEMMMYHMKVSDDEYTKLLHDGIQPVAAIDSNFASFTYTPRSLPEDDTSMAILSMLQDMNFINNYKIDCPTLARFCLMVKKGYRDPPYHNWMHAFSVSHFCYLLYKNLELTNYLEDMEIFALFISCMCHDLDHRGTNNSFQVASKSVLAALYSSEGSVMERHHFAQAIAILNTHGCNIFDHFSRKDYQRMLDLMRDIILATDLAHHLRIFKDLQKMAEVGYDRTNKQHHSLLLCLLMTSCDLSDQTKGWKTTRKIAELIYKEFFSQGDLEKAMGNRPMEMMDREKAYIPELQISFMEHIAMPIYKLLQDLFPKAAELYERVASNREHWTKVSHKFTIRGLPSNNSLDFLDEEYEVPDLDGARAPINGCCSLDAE
- protocolDetails: Radioenzymatic phosphodiesterase assay: PDE2 inhibition
- Assay type: biochemical, bovine
- experimentalConditions: Table 1; 10 μM test compound; read-out: PDE2 percentage of inhibition at 10 μM
Measured inhibition at 10 µM values are reported for all entries that follow.

{"columns": ["smilesStr", "targetUnderTest", "inhibition at 10 µM (%)"],
 "data": [
  ["COc1cc2c(cc1-c1ccccc1Cl)C(c1cccc(C#N)c1)=NCC(=O)N2C", "PDE2 (Bos taurus)", 98],
  ["COc1ccc(-c2cc3c(cc2OC)N(C)C(=O)CN=C3c2cccc(C#N)c2)cc1", "PDE2 (Bos taurus)", 97],
  ["COc1cc2c(cc1-c1ccccc1)C(c1ccc(Br)cc1)=NCC(=O)N2", "PDE2 (Bos taurus)", 72],
  ["COc1ccccc1-c1ccc2c(c1)C(c1cccc(C(N)=O)c1)=NCC(=O)N2C", "PDE2 (Bos taurus)", 97],
  ["CN1C(=O)CN=C(c2cccc(C(N)=O)c2)c2cc(-c3ccccc3Oc3ccccc3)ccc21", "PDE2 (Bos taurus)", 96],
  ["COc1ccc(-c2cc3c(cc2OC)N(C)C(=O)CN=C3c2cccc(C(N)=O)c2)cc1", "PDE2 (Bos taurus)", 99],
  ["CCOc1cc2c(cc1-c1ccccc1)C(c1ccccc1)=NCC(=O)N2CC", "PDE2 (Bos taurus)", 27],
  ["COc1cc2c(cc1-c1ccccc1Oc1ccccc1)C(c1cccc(C(N)=O)c1)=NCC(=O)N2C", "PDE2 (Bos taurus)", 98]
]}

====

- Test system: PDE4
- protocolDetails: Radioenzymatic phosphodiesterase assay: PDE4 inhibition (selectivity)
- experimentalConditions: Table 2; 10 μM test compound; PDE4 of vascular smooth muscle
readoutLabel: PDE4 percentage of inhibition at 10 μM (%)

{"columns": ["compound", "readoutLabel", "unitAnnotation", "value"],
 "data": [
  ["COc1cc2c(cc1-c1ccccc1Cl)C(c1cccc(C(N)=O)c1)=NCC(=O)N2C [Example 23]", "PDE4 percentage of inhibition at 10 μM", "%", 20],
  ["COc1cccc(OC)c1-c1ccc2c(c1)C(c1ccc(F)cc1)=NCC(=O)N2C [Example 100]", "PDE4 percentage of inhibition at 10 μM", "%", 77],
  ["COc1cccc(OC)c1-c1ccc2c(c1)C(c1cccc(C(N)=O)c1)=NCC(=O)N2C [Example 32]", "PDE4 percentage of inhibition at 10 μM", "%", 27],
  ["COc1ccccc1-c1cc2c(cc1OC)N(C)C(=O)CN=C2c1cccc(C(N)=O)c1 [Example 21]", "PDE4 percentage of inhibition at 10 μM", "%", 18],
  ["COc1ccc(-c2cc3c(cc2OC)N(C)C(=O)CN=C3c2cccc(C(N)=O)c2)cc1 [Example 22]", "PDE4 percentage of inhibition at 10 μM", "%", 50],
  ["COc1cccc(OC)c1-c1ccc2c(c1)C(c1cccc(C)c1)=NCC(=O)N2C [Example 115]", "PDE4 percentage of inhibition at 10 μM", "%", 42],
  ["COc1cc2c(cc1-c1c(OC)cccc1OC)C(c1cccc(C(N)=O)c1)=NCC(=O)N2C [Example 92]", "PDE4 percentage of inhibition at 10 μM", "%", 23],
  ["COc1ccc(OC)c(-c2ccc3c(c2)C(c2cccc(C(N)=O)c2)=NCC(=O)N3C)c1 [Example 31]", "PDE4 percentage of inhibition at 10 μM", "%", 25],
  ["COc1cc2c(cc1-c1ccccc1Oc1ccccc1)C(c1cccc(C(N)=O)c1)=NCC(=O)N2C [Example 93]", "PDE4 percentage of inhibition at 10 μM", "%", 56],
  ["COc1ccc(C2=NCC(=O)N(C)c3cc(OC)c(-c4c(OC)cccc4OC)cc32)cc1 [Example 109]", "PDE4 percentage of inhibition at 10 μM", "%", 90],
  ["COc1ccc(C2=NCC(=O)N(C)c3ccc(-c4c(OC)cccc4OC)cc32)cc1 [Example 75]", "PDE4 percentage of inhibition at 10 μM", "%", 78]
]}
